Test system: E. coli TESEC Mtb Alr
assayComment: growth (OD600 after 10 h); higher = more growth (less inhibition)
particulars: arabinose 10000 nM; compound 0.1 mM; raw OD600 reference: median of DMSO wells 0.264, cell-free background 0.041
Where a name gives a salt, the structure may show the parent alone.
reportedEndpoint: growth

>>> result("Cc1cc(C(C)(C)C)c(O)c(C)c1CC1=NCCN1 [Oxymetazoline hydrochloride]")
0.263
>>> result("Cc1ncc(C[n+]2csc(CCO)c2C)c(N)n1 [Thiamine hydrochloride]")
0.251
>>> result("NS(=O)(=O)c1cc(C(=O)O)c(NCc2ccco2)cc1Cl [Furosemide]")
0.255
>>> result("O=C1NCC2(CCN(CCc3ccccc3)CC2)O1 [Fenspiride hydrochloride]")
0.27
>>> result("O=C(Oc1cccc2cccnc12)c1ccccc1")
0.28
>>> result("CCCCCN(CCCCC)C(=O)C(CCC(=O)O)NC(=O)c1ccc(Cl)c(Cl)c1 (stereo not given) [Lorglumide sodium salt]")
0.114
>>> result("CCOc1ccc(NC(C)=O)cc1")
0.27
>>> result("OC(CCN1CCCCC1)(c1ccccc1)C1CCCCC1 (stereo not given) [Trihexyphenidyl-D,L Hydrochloride]")
0.265
>>> result("Clc1ccc(C(Cn2ccnc2)OCc2ccsc2Cl)c(Cl)c1 (stereo not given)")
0.0461
>>> result("CCOC(=O)C1=C(COCCN)NC(C)=C(C(=O)OC)C1c1ccccc1Cl (stereo not given)")
0.23
>>> result("Cc1onc(-c2c(Cl)cccc2Cl)c1C(=O)N[C@@H]1C(=O)N2[C@@H]1SC(C)(C)[C@@H]2C(=O)O [Dicloxacillin sodium salt hydrate]")
0.261
>>> result("COc1cccc2c1C(=O)c1c(O)c3c(c(O)c1C2=O)C[C@@](O)(C(C)=O)C[C@@H]3O[C@H]1C[C@H](N)[C@H](O)[C@H](C)O1 [Daunorubicin hydrochloride]")
0.0426
>>> result("CC(=O)Nc1nnc(S(N)(=O)=O)s1 [Acetazolamide]")
0.253
>>> result("C[N+](C)(C)CCOC(N)=O")
0.284
>>> result("Nc1ccn([C@@H]2O[C@H](CO)[C@@H](O)C2(F)F)c(=O)n1")
0.193
>>> result("Cc1ccc(O)c([C@H](CCN(C(C)C)C(C)C)c2ccccc2)c1 [Tolterodine tartrate]")
0.283
>>> result("O=C(NCC1CCCCN1)c1cc(OCC(F)(F)F)ccc1OCC(F)(F)F (stereo not given) [Flecainide acetate]")
0.276
>>> result("CN1[C@@H]2CC[C@H]1C[C@@H](OC(c1ccccc1)c1ccccc1)C2 [Benztropine mesylate]")
0.289
>>> result("CC(=O)Oc1ccc(C(c2ccc(OC(C)=O)cc2)c2ccccn2)cc1")
0.289
>>> result("CC(=O)NC[C@H]1CN(c2ccc(N3CCOCC3)c(F)c2)C(=O)O1")
0.0406
>>> result("CNC(=O)c1c(I)c(C(=O)NCC(=O)Nc2c(I)c(C(=O)O)c(I)c(C(=O)NCCO)c2I)c(I)c(N(C)C(C)=O)c1I")
0.28
>>> result("CCN(CC)CCOC(=O)c1ccc(N)cc1 [Procaine hydrochloride]")
0.273
>>> result("CC=C(C)C(=O)OC1C(OC(C)=O)C2(CO)C(O)CC3(C)C(=CCC4C5(C)CCC(OC6OC(C(=O)O)C(OC7OC(CO)C(O)C(O)C7O)C(O)C6OC6OC(CO)C(O)C(O)C6O)C(C)(CO)C5CCC43C)C2CC1(C)C (stereo not given)")
0.24
>>> result("C[C@H](CS)C(=O)N1CCC[C@H]1C(=O)O")
0.253
>>> result("CN(C)CCn1nnnc1SCC1=C(C(=O)O)N2C(=O)[C@@H](NC(=O)Cc3csc(N)n3)[C@H]2SC1 [Cefotiam hydrochloride]")
0.0413
>>> result("OCCN1C[C@H](O)[C@@H](O)[C@H](O)[C@H]1CO")
0.26
>>> result("CO[C@H]1C[C@H](O[C@H]2[C@H](C)[C@@H](O[C@@H]3O[C@H](C)C[C@H](N(C)C)[C@H]3OC(C)=O)[C@@H](C)C[C@@]3(CO3)C(=O)[C@H](C)[C@@H](OC(C)=O)[C@@H](C)[C@@H](C)OC(=O)[C@@H]2C)O[C@@H](C)[C@@H]1OC(C)=O")
0.0495
>>> result("CCCCCCCCCCCCCCCC[N+](C)(C)CCN(Cc1ccc(OC)cc1)c1ncccn1 [Thonzonium bromide]")
0.0958
>>> result("CC(=O)Oc1ccccc1C(=O)Nc1ncc([N+](=O)[O-])s1 [Nitazoxanide]")
0.0417
>>> result("CC(=O)O[C@@]12CO[C@@H]1C[C@H](O)[C@@]1(C)C(=O)[C@H](O)C3=C(C)[C@@H](OC(=O)[C@H](O)[C@@H](NC(=O)OC(C)(C)C)c4ccccc4)C[C@@](O)([C@@H](OC(=O)c4ccccc4)[C@H]21)C3(C)C")
0.299

* * *

Listed here: items and their measured growth.
System: E. coli TESEC Mtb DapB
assayComment: growth (OD600 after 10 h); higher = more growth (less inhibition)
particulars: arabinose induction (level): High; compound 0.1 mM; raw OD600 reference: median of DMSO wells […], cell-free background 0.041
Structures can show the parent of a compound that is named as a salt.
reportedEndpoint: growth

>>> numericvalue("Cc1ccc(S(=O)(=O)NC(=O)NN2CC3CCCC3C2)cc1 (centres undefined) [Gliclazide]")
0.212
>>> numericvalue("COC(=O)Nc1nc2ccc(SC(C)C)cc2[nH]1")
0.204
>>> numericvalue("CC(=O)Oc1cc(C(F)(F)F)ccc1C(=O)O")
0.207
>>> numericvalue("CCN(CC)CCOC(=O)C1(C2CCCCC2)CCCCC1 [Dicyclomine hydrochloride]")
0.144
>>> numericvalue("CN(C)CCOc1ccc(/C(=C(/CCCl)c2ccccc2)c2ccccc2)cc1")
0.0495
>>> numericvalue("CN1CCCN=C1/C=C/c1cccc(O)c1 [Oxantel pamoate]")
0.195
>>> numericvalue("CC(=O)NCCCS(=O)(=O)O [Acamprosate calcium]")
0.212
>>> numericvalue("CC(=O)OC(C)C[N+](C)(C)C (centres undefined) [Methacholine chloride]")
0.226
>>> numericvalue("CSc1ccc2c(c1)N(CCC1CCCCN1C)c1ccccc1S2 (centres undefined) [Thioridazine hydrochloride]")
0.048
>>> numericvalue("C=CCOc1ccccc1OCC(O)CNC(C)C (centres undefined) [Oxprenolol hydrochloride]")
0.204
>>> numericvalue("CC1=C(C(=O)O)N2C(=O)[C@@H](NC(=O)[C@H](N)c3ccc(O)cc3)[C@H]2SC1")
0.192
>>> numericvalue("Clc1cc(Cl)c(OCC#CI)cc1Cl")
0.245
>>> numericvalue("Nc1ccc(S(=O)(=O)NC(=O)c2ccccc2)cc1 [Sulfabenzamide]")
0.221
>>> numericvalue("OCCN1CCN(CCCN2c3ccccc3Sc3ccc(Cl)cc32)CC1")
0.0511
>>> numericvalue("CCCCNC(=O)NS(=O)(=O)c1ccc(C)cc1 [Tolbutamide]")
0.187
>>> numericvalue("OC(CCN1CCCCC1)(c1ccccc1)C1CCCCC1 (centres undefined) [Trihexyphenidyl-D,L Hydrochloride]")
0.179
>>> numericvalue("CS(=O)(=O)OCCCCOS(C)(=O)=O")
0.209
>>> numericvalue("Cc1cccc(C)c1NC(=O)CN1CCN(CCCC(c2ccc(F)cc2)c2ccc(F)cc2)CC1")
0.232
>>> numericvalue("O=C1c2cccc3c2[C@H](CCC3)CN1[C@@H]1CN2CCC1CC2 [Palonosetron hydrochloride]")
0.198

* * *

The reader will find reported growth values listed item by item below.
Test system: E. coli TESEC Mtb DapB
assayComment: growth (OD600 after 10 h); higher = more growth (less inhibition)
particulars: arabinose induction (level): High; compound 0.1 mM; raw OD600 reference: median of DMSO wells […], cell-free background 0.041
Counter-ions that a name gives are not always drawn.
reportedEndpoint: growth

>>> numericvalue("CCCc1nc(C)c2c(=O)nc(-c3cc(S(=O)(=O)N4CCN(CC)CC4)ccc3OCC)[nH]n12")
0.151
>>> numericvalue("C#Cc1cccc(Nc2ncnc3cc(OCCOC)c(OCCOC)cc23)c1")
0.161
>>> numericvalue("Nc1ccccc1S(N)(=O)=O [2-Aminobenzenesulfonamide]")
0.2
>>> numericvalue("O=P(O)(O)C(O)(Cn1ccnc1)P(=O)(O)O [Zoledronic acid hydrate]")
0.193
>>> numericvalue("CC(CCc1ccccc1)NCC(O)c1ccc(O)c(C(N)=O)c1 (stereo not given) [Labetalol hydrochloride]")
0.186

* * *

Tested on: E. coli TESEC Mtb Alr
assayComment: growth (OD600 after 10 h); higher = more growth (less inhibition)
particulars: arabinose 10000000 nM; compound 0.1 mM; raw OD600 reference: median of DMSO wells 0.146, cell-free background 0.041
Where a name gives a salt, the structure may show the parent alone.
reportedEndpoint: growth

>>> numericvalue("Cc1cc(NC(=O)C2=C(O)c3ccccc3S(=O)(=O)N2C)no1")
0.135
>>> numericvalue("C#C[C@]1(O)CC[C@H]2[C@@H]3CCc4cc(OC)ccc4[C@H]3CC[C@@]21C")
0.149
>>> numericvalue("O=c1cc(-c2ccc(O)c(O)c2)oc2cc(O)cc(O)c12")
0.0518
>>> numericvalue("CCC(C)(C)C(=O)O[C@H]1C[C@@H](C)C=C2C=C[C@H](C)[C@H](CC[C@@H]3C[C@@H](O)CC(=O)O3)[C@H]21")
0.0742
>>> numericvalue("C=CC(N)CCC(=O)O (centres undefined)")
0.148
>>> numericvalue("CCOC(=O)Nc1ccc2c(c1)N(C(=O)CCN1CCOCC1)c1ccccc1S2 [Moricizine hydrochloride]")
0.14
>>> numericvalue("CN(C/C=C/C#CC(C)(C)C)Cc1cccc2ccccc12")
0.174
>>> numericvalue("O=c1[nH]cc(F)c(=O)[nH]1")
0.0896
>>> numericvalue("COc1cc(C(=O)NCc2ccc(OCCN(C)C)cc2)cc(OC)c1OC [Trimethobenzamide hydrochloride]")
0.159
